Data credit: ChEMBL document CHEMBL3988442

- System: Wolbachia pipientis
- experiment notes: Anti-Wolbachia Cell-Based Screen
- Assay type: functional
- Parameters: scale not given: in the data most compounds retested in dose-response had high values
- cond: 5 µM
About 13,000 (27%) of roughly 48,000 compounds showed an effect of 50% or more. The list shows a part of the results.
metric: Percent Effect (%)
Numbers only; they are read as %.

>>> result_number("CO[C@H]1CN(Cc2ccc(F)c(F)c2)C[C@@]12CCCO2")
125.7
>>> result_number("Cn1ccnc1CN(CCO)C(=O)C1CCN(C(=O)C2CC2)CC1")
-5.097
>>> result_number("CC(=O)N1CCC(n2nccc2-c2cnc(N)nc2)CC1")
106.3
>>> result_number("CNc1ncc(-c2ccnn2C2CCN(C(C)=O)CC2)cn1")
109.9

Please turn your attention to the following entry.
Problem: Endpoint output: Percent Effect of "CC(=O)N1CCC(Oc2ccc(Cl)cn2)CC1" . Value?
Solution: -4.055
